- study.system: L-arginine deiminase (ADI) from Penicillium chrysogenum
- Construct: single 49 kDa band on SDS-PAGE
- method: ammonia release, Nessler's reagent, […] nm; residual activity at […]
- Type: biochemical
- condition.summary: covalent; sulfhydryl modifier; pre-incubated 1 h at 25 °C, 100 mM Tris-HCl pH 5.0, 1 mM EDTA
value.kind: pIC50
Give bare numbers, as −log10 of the molar value.

Looking up CCN1C(=O)C=CC1=O [N-ethylmaleimide] , I see its pIC50 listed as 2.31

---

- study.system: L-arginine deiminase (ADI) from Penicillium chrysogenum
- Construct: single 49 kDa band on SDS-PAGE
- method: ammonia release, Nessler's reagent, […] nm; residual activity at […]
- Assay type: biochemical
- condition.summary: covalent; tyrosyl modifier; 150 mM phosphate pH 7.5, 37 °C, 20 min
value.kind: IC50 (mM)
Answers are plain numbers, in mM.

# IC50 of CC(=O)n1ccnc1 = 5.4

---

- study.system: L-arginine deiminase (ADI) from Penicillium chrysogenum
- Construct: single 49 kDa band on SDS-PAGE
- method: ammonia release, Nessler's reagent, […] nm; residual activity at […]
- Assay type: biochemical
- condition.summary: covalent; histidyl modifier; assay buffer, 25 °C, 5 min
value.kind: IC50 (mM)
Give bare numbers, in mM.

Notebook: CCOC(=O)OC(=O)OCC [diethylpyrocarbonate] , IC50 read as 6.44

---

- study.system: L-arginine deiminase (ADI) from Penicillium chrysogenum
- Construct: single 49 kDa band on SDS-PAGE
- method: ammonia release, Nessler's reagent, […] nm; residual activity at […]
- Format: biochemical
- condition.summary: covalent; arginyl modifier; 50 mM sodium borate pH 7.0, room temperature
value.kind: IC50 (mM)
Numbers only, in mM.

For CC(=O)C(C)=O the molecule record lists IC50 as 4.66

---

- study.system: L-arginine deiminase (ADI) from Penicillium chrysogenum
- Construct: single 49 kDa band on SDS-PAGE
- method: ammonia release, Nessler's reagent, […] nm; residual activity at […]
- Type: biochemical
- condition.summary: chelator in the reaction mixture; L-arginine as substrate; 40 °C
value.kind: IC50
Don't forget the unit after the value.

Example results:
{"sample.smiles": "c1ccc(-c2ccccn2)nc1", "study.system": "L-arginine deiminase (ADI) from Penicillium chrysogenum", "IC50": "7.46 mM"}
{"sample.smiles": "O=C(O)CN(CCN(CC(=O)O)CC(=O)O)CC(=O)O", "study.system": "L-arginine deiminase (ADI) from Penicillium chrysogenum", "IC50": "5.19 mM"}

Okay, now this compound:
GET /value?item= c1cnc2c(c1)ccc1cccnc12 &field=IC50 returns 4.79 mM

---

- study.system: L-arginine deiminase (ADI) from Penicillium chrysogenum
- Construct: single 49 kDa band on SDS-PAGE
- method: ammonia release, Nessler's reagent, […] nm; residual activity at […]
- Format: biochemical
- condition.summary: covalent; lysyl modifier; 100 mM Tris-HCl pH 7.0, 4 °C, 1 h
value.kind: IC50
Write the numeric value and append its unit.

Summary: CN(C)c1cccc2c(S(=O)(=O)Cl)cccc12 [dansyl chloride] , L-arginine deiminase (ADI) from Penicillium chrysogenum, IC50 = 6.48 mM
